# study.target: human TrkA receptor (Homo sapiens (Human))
# Sequence (P04629 33-796): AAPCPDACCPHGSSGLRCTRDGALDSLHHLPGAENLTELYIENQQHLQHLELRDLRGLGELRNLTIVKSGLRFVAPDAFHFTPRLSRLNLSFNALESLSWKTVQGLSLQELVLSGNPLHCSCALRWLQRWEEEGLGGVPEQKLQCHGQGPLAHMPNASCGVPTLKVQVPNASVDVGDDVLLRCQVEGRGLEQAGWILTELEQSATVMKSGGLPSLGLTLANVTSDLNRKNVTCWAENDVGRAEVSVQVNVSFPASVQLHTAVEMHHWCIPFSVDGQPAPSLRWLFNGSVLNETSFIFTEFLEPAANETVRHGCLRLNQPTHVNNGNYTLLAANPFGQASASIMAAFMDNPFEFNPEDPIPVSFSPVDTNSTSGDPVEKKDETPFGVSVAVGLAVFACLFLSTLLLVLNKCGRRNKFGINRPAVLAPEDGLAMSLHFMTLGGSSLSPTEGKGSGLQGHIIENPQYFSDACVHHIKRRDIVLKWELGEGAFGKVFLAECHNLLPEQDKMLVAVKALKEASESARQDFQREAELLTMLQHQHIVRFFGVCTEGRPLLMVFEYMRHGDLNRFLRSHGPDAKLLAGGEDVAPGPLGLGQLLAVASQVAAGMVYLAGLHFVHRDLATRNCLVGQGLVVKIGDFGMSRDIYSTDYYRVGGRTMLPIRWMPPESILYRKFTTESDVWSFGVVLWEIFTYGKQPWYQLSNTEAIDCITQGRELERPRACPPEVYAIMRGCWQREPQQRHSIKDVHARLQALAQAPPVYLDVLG
# protocol.text: DiscoverX PathHunter TrkA functional assay (NGF-stimulated U2OS cells)
# test.context: U2OS cells expressing human TrkA-PK, Shc1-EA and p75NTR; compound 1 h, then NGF at ~80% of maximal response for 3 h; luminescence
Assignment: determine reported pIC50 for the given molecules.
Answers are plain numbers, as −log10 of the molar value.

Cn1ccc(-c2cc(C(=O)Nc3cc4c(nc3-c3ccccc3)CNC(=O)C4)ccc2C(F)(F)F)n1 [Example 142] :: 8.33
Cn1ccc(-c2cc(C(=O)Nc3ccc(C4CNC(=O)C4)nc3-c3ccccc3)c(F)cc2C(F)(F)F)n1 (single isomer, unassigned) [Example 198] :: 9.24
Cn1ccc(-c2cc(C(=O)Nc3cnc(CC4NC(=O)NC4=O)nc3-c3ccccc3)ccc2C(F)(F)F)n1 (single isomer, unassigned) [Example 190] :: 8.74
CC(N)c1ccc(-c2cnc(-c3ccccc3)c(NC(=O)c3cc(-c4ccn(C)n4)c(C(F)(F)F)cc3F)c2)nc1 (centres unmarked) [Example 178] :: 9.54
Cn1ccc(-c2cc(C(=O)Nc3cc4c(nc3-c3ccccc3)CCN(CC(N)=O)C4)ccc2C(F)(F)F)n1 [Example 140] :: 8.74

Dear colleague, could you send me pIC50 for each of the items below? Thanks.
1. Cc1nc(Cl)c(NC(=O)c2ccc(C(F)(F)F)c(-c3ccn(C)n3)c2)c(-c2ccccc2)n1 [Example 4]
2. Cn1ccc(-c2cc(C(=O)Nc3cnc(CC(N)=O)nc3-c3ccccc3)c(F)cc2C(F)(F)F)n1 [Example 99]
3. NC(=O)c1cnc(-c2cnc(-c3ccccc3)c(NC(=O)c3cc(-c4ncccn4)c(C(F)(F)F)cc3F)c2)nc1 [Example 169]
4. Cn1ccc(-c2cc(C(=O)Nc3ccc(C4COC(=O)N4)nc3-c3ccccc3)c(F)cc2C(F)(F)F)n1 (single isomer, unassigned) [Example 196]
5. Cn1ccc(-c2cc(C(=O)Nc3cnc(C4(C(N)=O)CC4)nc3-c3ccccc3)c(F)cc2C(F)(F)F)n1 [Example 119]
6. Cn1ccc(-c2cc(C(=O)Nc3ccc(CNC(=O)[C@@H]4CCC(=O)N4)nc3-c3ccccc3)c(F)cc2C(F)(F)F)n1 [Example 57]
7. Cn1ccc(-c2cc(C(=O)Nc3cc(C(=O)O)cnc3-c3ccccc3)c(F)cc2C(F)(F)F)n1 [Example 81]
8. Cc1ncc(NC(=O)c2ccc(C(F)(F)F)c(-n3nccn3)c2)c(-c2ccccc2)n1 [Example 16]

1: 6.80; 2: 9.23; 3: 9.23; 4: 9.72; 5: 8.10; 6: 8.96; 7: 7.85; 8: 7.18

Please give the measured pIC50 for this molecule: CNCc1ncc(NC(=O)c2ccc(C(F)(F)F)c(-c3ccn(C)n3)c2)c(-c2ccccc2)n1 [Example 45] 7.80

* * *

# study.target: UniProtKB P04629
# protocol.text: DiscoverX PathHunter TrkA functional assay (NGF-stimulated U2OS cells)
# test.context: U2OS cells expressing human TrkA-PK, Shc1-EA and p75NTR; compound 1 h, then NGF at ~80% of maximal response for 3 h; luminescence
Consider the following molecules; for each one, report its pIC50.
Answers are plain numbers, as −log10 of the molar value.

These recorded examples may help you get a feel for the data.
Cc1ccccc1-c1nc(CC(N)=O)ncc1NC(=O)c1cc(-c2ccn(C)n2)c(C(F)(F)F)cc1F [Example 117] :: 8.31
Cn1ccc(-c2cc(C(=O)Nc3cc4c(nc3-c3ccccn3)CCNC4=O)c(F)cc2C(F)(F)F)n1 [Example 141] :: 7.85
NC(=O)Cc1cc(-c2ccccc2)c(NC(=O)c2cc(-c3ccccn3)c(C(F)(F)F)cc2F)cn1 [Example 127] :: 8.22
Cn1ccc(-c2cc(C(=O)Nc3cnc(CC4CCNC4=O)nc3-c3ccccc3)c(F)cc2C(F)(F)F)n1 (single isomer, unassigned) [Example 191] :: 8.35
NC(=O)c1ccc(-c2cnc(-c3ccccc3)c(NC(=O)c3cc(-c4cc[nH]n4)c(C(F)(F)F)cc3F)c2)cc1 [Example 165] :: 8.64

For each of the molecules below, state pIC50.
1. Cn1ccc(-c2cc(C(=O)Nc3cnc(NCCO)nc3-c3ccccc3)ccc2C(F)(F)F)n1 [Example 210]
2. Cn1ccc(-c2cc(C(=O)Nc3cc(-c4ccc(C(C)(C)O)cn4)cnc3-c3ccccc3)c(F)cc2C(F)(F)F)n1 [Example 172]
3. Cn1ccc(-c2cc(C(=O)Nc3cnc(Cc4nnnn4C)nc3-c3ccccc3)c(F)cc2C(F)(F)F)n1 [Example 179]

[8.60, 9.59, 9.00]
